Study the reported pIC50 values for Serine/threonine-protein kinase B-raf (Homo sapiens) given below; they originate from different publications.
pIC50: −log10 of the molar value.

Here are 3 compounds together with their reported answers.
compound: COc1ccc(S(=O)(=O)Nc2ccc(F)c(C(=O)c3c[nH]c4ncc(Cl)cc34)c2F)cc1F
pIC50: ≥ 5.00
//
compound: O=C(Nc1ccc(Cl)c(C(F)(F)F)c1)Nc1ccc(Oc2ccnc(NC(=O)C3CC3)c2)cc1F
pIC50: 8.14
//
compound: COc1ccc(NC(=O)Nc2cnc(Oc3ccnc(NC(=O)C4CC4)c3)c(C)c2)cc1C(F)(F)F
pIC50: 8.07

Query string: Lab note: record pIC50 of O=C(Nc1cccc(C(F)(F)F)c1)Nc1ccc(Oc2ccnc(NC(=O)C3CC3)c2)cc1F tested on Serine/threonine-protein kinase B-raf (Homo sapiens).
Result string: 8.19

Query string: Lab note: record pIC50 of O=C(Nc1cccc(C(F)(F)F)c1)Nc1ccc(Oc2cc(NC(=O)C3CC3)ncn2)cc1F tested on Serine/threonine-protein kinase B-raf (Homo sapiens).
Result string: 7.39

Query string: Lab note: record pIC50 of CCCS(=O)(=O)Nc1ccc(F)c(C(=O)c2c[nH]c3ncc(-c4ccc(S(=O)(=O)N5CCCC5)cc4)cc23)c1F tested on Serine/threonine-protein kinase B-raf (Homo sapiens).
Result string: ≥ 5.00

Query string: Lab note: record pIC50 of CCS(=O)(=O)Nc1ccc(F)c(C(=O)c2c[nH]c3ncc(-c4cnc(OC)nc4)cc23)c1F tested on Serine/threonine-protein kinase B-raf (Homo sapiens).
Result string: ≥ 5.00

Query string: Lab note: record pIC50 of CCCS(=O)(=O)Nc1ccc(F)c(C(=O)c2ccc3ncc(N4CCOCC4)nc3c2)c1F tested on Serine/threonine-protein kinase B-raf (Homo sapiens).
Result string: 6.00 to 7.00

Query string: Lab note: record pIC50 of COc1cnc2[nH]cc(C(=O)c3c(F)ccc(NS(=O)(=O)CC(C)C)c3F)c2c1 tested on Serine/threonine-protein kinase B-raf (Homo sapiens).
Result string: ≥ 5.00

Query string: Lab note: record pIC50 of CC(C)CS(=O)(=O)Nc1ccc(F)c(C(=O)c2c[nH]c3ncc(Cl)cc23)c1F tested on Serine/threonine-protein kinase B-raf (Homo sapiens).
Result string: ≥ 5.00

Query string: Lab note: record pIC50 of COc1cc(Cc2c[nH]c3ncc(Cl)cc23)ccc1OCc1ccc(Cl)cc1 tested on Serine/threonine-protein kinase B-raf (Homo sapiens).
Result string: ≥ 5.00

Query string: Lab note: record pIC50 of CCCS(=O)(=O)Nc1ccc(F)c(C(O)c2c[nH]c3ncc(-c4ccc(C(=O)NCC)nc4)cc23)c1F (stereo not shown) tested on Serine/threonine-protein kinase B-raf (Homo sapiens).
Result string: ≥ 5.00

Query string: Lab note: record pIC50 of O=C(c1c(F)ccc(NS(=O)(=O)c2ccc3oc(=O)ccc3c2)c1F)c1c[nH]c2ncc(Cl)cc12 tested on Serine/threonine-protein kinase B-raf (Homo sapiens).
Result string: ≥ 5.00

Query string: Lab note: record pIC50 of CCCS(=O)(=O)Nc1ccc(F)c(C(=O)c2c[nH]c3ncc(-c4cnc(C)nc4)cc23)c1F tested on Serine/threonine-protein kinase B-raf (Homo sapiens).
Result string: ≥ 5.00

Query string: Lab note: record pIC50 of O=C(Nc1cccc(C(F)(F)F)c1)Nc1ccc(Oc2ccnc(NC(=O)C3CC3)c2)c(F)c1 tested on Serine/threonine-protein kinase B-raf (Homo sapiens).
Result string: 8.20

Query string: Lab note: record pIC50 of CCCS(=O)(=O)Nc1ccc(F)c(C(=O)c2c[nH]c3ncc(CN4CCCC4)cc23)c1F tested on Serine/threonine-protein kinase B-raf (Homo sapiens).
Result string: ≥ 5.00
